Target: T1, EBOV sGP (EBOV (Ebola Zaire), UniProt P60170 33-324)
T1 sequence: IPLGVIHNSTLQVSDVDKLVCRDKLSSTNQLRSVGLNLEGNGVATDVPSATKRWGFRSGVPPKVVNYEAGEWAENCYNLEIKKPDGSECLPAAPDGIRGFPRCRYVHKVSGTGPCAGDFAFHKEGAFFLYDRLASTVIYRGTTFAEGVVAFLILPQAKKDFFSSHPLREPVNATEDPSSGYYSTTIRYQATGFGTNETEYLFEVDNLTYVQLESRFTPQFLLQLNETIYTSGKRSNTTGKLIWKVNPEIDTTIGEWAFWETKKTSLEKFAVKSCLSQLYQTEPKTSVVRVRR
Experiment: ELISA, sGP coated on plate, mAb serially diluted
measurement.kind: EC50 (mg/L)

INSERT INTO assay_data (binder, assay_value) VALUES
  ('EBOV63 (antibody, V domains shown) VH: EVQLVESGGGLVKPGGSLRLSCAASGFTLNFYNMNWVRQAPGKGLEWVSSISSSSNYIYYADSVKGRFTISRDNARKSLYLQMNSLRAEDTAVYYCARDFVQLLIPQRDEWQGVHDYYGMDVWGQGTLVTVSS VL: EIVLTQSPGTLSLSPGGRATLSCRASQSVSNSYLAWYQQKPGQAPRLLIYGASSRATGIPDRFSGSGSGTDFILTISRLEPEDFAVYYCQHYGSSQLTFGGGTKVEIK', 38);

// data source = patent US20200200749A1
